# tested system: Ecm22 (UniProt Q05958)
# Sequence: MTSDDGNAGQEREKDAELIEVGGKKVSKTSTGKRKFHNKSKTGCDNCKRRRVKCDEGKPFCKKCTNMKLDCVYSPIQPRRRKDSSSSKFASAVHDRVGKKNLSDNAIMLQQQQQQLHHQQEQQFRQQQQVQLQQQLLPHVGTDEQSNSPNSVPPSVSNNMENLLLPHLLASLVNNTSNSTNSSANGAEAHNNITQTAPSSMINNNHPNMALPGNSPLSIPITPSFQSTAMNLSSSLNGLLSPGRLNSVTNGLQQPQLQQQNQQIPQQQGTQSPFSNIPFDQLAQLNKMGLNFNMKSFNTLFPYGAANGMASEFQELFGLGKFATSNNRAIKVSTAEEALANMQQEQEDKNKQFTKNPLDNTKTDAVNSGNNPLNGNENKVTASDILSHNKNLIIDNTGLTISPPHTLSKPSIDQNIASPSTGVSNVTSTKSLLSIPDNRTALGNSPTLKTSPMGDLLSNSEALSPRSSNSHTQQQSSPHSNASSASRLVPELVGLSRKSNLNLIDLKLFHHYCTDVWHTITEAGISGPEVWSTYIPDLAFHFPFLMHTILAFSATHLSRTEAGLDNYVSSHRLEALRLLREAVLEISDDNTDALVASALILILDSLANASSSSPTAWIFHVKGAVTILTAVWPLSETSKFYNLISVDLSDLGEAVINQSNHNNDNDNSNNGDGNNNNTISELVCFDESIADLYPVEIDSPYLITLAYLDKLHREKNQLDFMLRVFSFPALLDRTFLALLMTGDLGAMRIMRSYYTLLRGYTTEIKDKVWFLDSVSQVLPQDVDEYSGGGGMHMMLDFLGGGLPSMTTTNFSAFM
# assay protocol: PBM E-score (8-mer binding enrichment) (E-score (-0.5 to 0.5)); higher = stronger / more preferred TF binding
# condition description: protein concentration: 200 nM; construct: GST-full length
The full ranking holds about 33,000 sequences; the median of “E-score (-0.5 to 0.5)” is about -0.041, and the highest 2% start at about 0.37. For the sample, the highest values were picked, then their nearest neighbours and some sequences at random.
Grouping key: PBM E-score. Bins: category 1 = under -0.01, category 2 = from -0.01 up to 0.3, category 3 = 0.3 and over

Example cases with answers are listed next.
[[record]]
primary_sequence = "TCATACCA"
tested_system = "Ecm22 (UniProt Q05958)"
label_value = "category 1"

[[record]]
primary_sequence = "AACGACGA"
tested_system = "Ecm22 (UniProt Q05958)"
label_value = "category 3"

[[record]]
primary_sequence = "CAATCGTG"
tested_system = "Ecm22 (UniProt Q05958)"
label_value = "category 1"

[[record]]
primary_sequence = "ACGGCCCG"
tested_system = "Ecm22 (UniProt Q05958)"
label_value = "category 2"

[[record]]
primary_sequence = "ATCGTTGG"
tested_system = "Ecm22 (UniProt Q05958)"
label_value = "category 1"

[[record]]
primary_sequence = "AAAGGAGT"
tested_system = "Ecm22 (UniProt Q05958)"
label_value = "category 1"


Here's the next entry for you.
Which bin should I file "AGTGTACG" under? category 3

* * *

# tested system: Ecm22 (UniProt Q05958)
# Sequence: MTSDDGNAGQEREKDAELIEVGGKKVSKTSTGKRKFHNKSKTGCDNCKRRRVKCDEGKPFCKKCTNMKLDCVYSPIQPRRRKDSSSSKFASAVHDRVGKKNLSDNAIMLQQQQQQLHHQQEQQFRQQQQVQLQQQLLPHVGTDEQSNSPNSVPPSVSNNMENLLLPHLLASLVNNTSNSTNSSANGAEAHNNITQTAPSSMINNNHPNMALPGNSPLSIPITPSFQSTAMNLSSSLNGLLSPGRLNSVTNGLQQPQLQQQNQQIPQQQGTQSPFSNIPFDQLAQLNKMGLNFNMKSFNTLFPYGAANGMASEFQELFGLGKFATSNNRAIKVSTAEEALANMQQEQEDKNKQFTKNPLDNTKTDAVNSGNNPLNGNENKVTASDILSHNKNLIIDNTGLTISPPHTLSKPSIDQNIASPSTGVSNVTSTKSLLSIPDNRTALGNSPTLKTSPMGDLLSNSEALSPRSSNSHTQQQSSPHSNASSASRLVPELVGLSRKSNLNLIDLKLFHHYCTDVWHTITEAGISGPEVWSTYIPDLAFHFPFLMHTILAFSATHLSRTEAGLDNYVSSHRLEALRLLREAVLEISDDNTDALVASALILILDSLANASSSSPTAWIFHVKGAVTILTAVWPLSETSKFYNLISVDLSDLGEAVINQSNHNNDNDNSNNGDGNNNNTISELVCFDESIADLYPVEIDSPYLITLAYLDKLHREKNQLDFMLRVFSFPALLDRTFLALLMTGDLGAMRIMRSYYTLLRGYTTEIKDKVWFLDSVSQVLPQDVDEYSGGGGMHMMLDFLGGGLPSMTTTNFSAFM
# assay protocol: PBM E-score (8-mer binding enrichment) (E-score (-0.5 to 0.5)); higher = stronger / more preferred TF binding
# condition description: protein concentration: 200 nM; construct: GST-full length
The full ranking holds about 33,000 sequences; the median of “E-score (-0.5 to 0.5)” is about -0.041, and the highest 2% start at about 0.37. Many of the other results were omitted from the sample, so the highest values are more common in it than they were.
PBM E-score overview
# output: bare number, no unit

Example sequences with recorded PBM E-score:
[[record]]
primary_sequence = "GCTTCGCA"
assay_endpoint = "PBM E-score"
quantitative_result = 0.193

[[record]]
primary_sequence = "CGTACTAC"
assay_endpoint = "PBM E-score"
quantitative_result = 0.382

[[record]]
primary_sequence = "CGTTCATA"
assay_endpoint = "PBM E-score"
quantitative_result = 0.386

[[record]]
primary_sequence = "ACCCCGGT"
assay_endpoint = "PBM E-score"
quantitative_result = 0.00636

[[record]]
primary_sequence = "CGTACTAA"
assay_endpoint = "PBM E-score"
quantitative_result = 0.341


Recorded result, "AACTGTTC" , PBM E-score: -0.177

Recorded result, "AGTTCGTA" , PBM E-score: 0.449

Recorded result, "CGGCTCCC" , PBM E-score: -0.0756

Recorded result, "CGTTCAAA" , PBM E-score: 0.361

Recorded result, "GAGAGACC" , PBM E-score: -0.21

Recorded result, "CCGAGAAC" , PBM E-score: 0.204

Recorded result, "CGTGTGTC" , PBM E-score: 0.0878

Recorded result, "ACGAGAAC" , PBM E-score: 0.4

Recorded result, "CGTACTAG" , PBM E-score: 0.342

Recorded result, "GGTCCACC" , PBM E-score: -0.214

Recorded result, "CGAAGCAG" , PBM E-score: 0.147

Recorded result, "AATAAGGC" , PBM E-score: -0.225

Recorded result, "ATGAGAGA" , PBM E-score: -0.0934

Recorded result, "GGTTCATA" , PBM E-score: 0.0139

Recorded result, "ACTTCGTA" , PBM E-score: 0.434

* * *

# tested system: Ecm22 (UniProt Q05958)
# Sequence: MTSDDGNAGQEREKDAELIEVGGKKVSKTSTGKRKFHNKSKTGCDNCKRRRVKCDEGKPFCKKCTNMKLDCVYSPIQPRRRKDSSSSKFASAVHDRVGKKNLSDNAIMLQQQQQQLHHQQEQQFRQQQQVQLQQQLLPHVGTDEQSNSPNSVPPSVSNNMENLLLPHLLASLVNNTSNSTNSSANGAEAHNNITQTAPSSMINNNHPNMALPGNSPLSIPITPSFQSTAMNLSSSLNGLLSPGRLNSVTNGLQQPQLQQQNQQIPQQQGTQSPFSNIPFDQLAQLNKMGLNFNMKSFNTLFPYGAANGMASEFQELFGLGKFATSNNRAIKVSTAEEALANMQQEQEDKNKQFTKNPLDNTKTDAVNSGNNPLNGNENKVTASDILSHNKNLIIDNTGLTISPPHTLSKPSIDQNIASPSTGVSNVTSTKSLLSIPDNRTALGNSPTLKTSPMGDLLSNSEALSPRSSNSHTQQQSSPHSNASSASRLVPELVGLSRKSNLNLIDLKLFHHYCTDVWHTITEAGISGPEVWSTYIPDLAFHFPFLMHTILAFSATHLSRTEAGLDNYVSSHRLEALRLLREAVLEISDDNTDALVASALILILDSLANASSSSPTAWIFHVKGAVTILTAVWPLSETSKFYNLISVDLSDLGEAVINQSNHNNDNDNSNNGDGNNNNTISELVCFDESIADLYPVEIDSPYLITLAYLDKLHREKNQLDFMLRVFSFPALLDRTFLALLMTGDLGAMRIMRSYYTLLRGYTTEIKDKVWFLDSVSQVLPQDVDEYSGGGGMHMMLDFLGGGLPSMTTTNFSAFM
# assay protocol: PBM E-score (8-mer binding enrichment) (E-score (-0.5 to 0.5)); higher = stronger / more preferred TF binding
# condition description: protein concentration: 200 nM; construct: GST-full length
In all, about 33,000 sequences were measured (“E-score (-0.5 to 0.5)”: median about -0.041, highest 2% from about 0.37 on). The list comes from a sample in which the highest values are over-represented; it also holds close analogues and randomly drawn sequences.
Grouping key: PBM E-score. Bins: zone 1: < -0.09; zone 2: ≥ -0.09 and < 0.06; zone 3: ≥ 0.06

Example cases with answers are listed next.
[[record]]
primary_sequence = "CGGACCCG"
tested_system = "Ecm22 (UniProt Q05958)"
label_value = "zone 3"

[[record]]
primary_sequence = "TAACGACA"
tested_system = "Ecm22 (UniProt Q05958)"
label_value = "zone 3"

[[record]]
primary_sequence = "AGAACCCC"
tested_system = "Ecm22 (UniProt Q05958)"
label_value = "zone 1"


Which bin should I file "CCTAAACC" under? zone 2

Which bin should I file "GGACGACC" under? zone 1

Which bin should I file "ACGGGGAC" under? zone 2

Which bin should I file "CGCGGCAC" under? zone 3

Which bin should I file "CAACGACG" under? zone 3

Which bin should I file "CCTAAACG" under? zone 3

Which bin should I file "CTGAAGTA" under? zone 1

Where do the numbers come from? From the supplement of paper PMC3334620.
